B1: LINE1-full (parent)
chain: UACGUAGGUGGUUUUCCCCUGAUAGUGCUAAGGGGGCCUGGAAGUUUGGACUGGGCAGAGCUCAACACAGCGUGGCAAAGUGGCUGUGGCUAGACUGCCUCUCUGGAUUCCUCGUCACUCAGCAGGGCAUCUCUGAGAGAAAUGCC

Variants of: B1
Assay: self-cleavage, relative activity (ratio to wild type); higher = more cleavage; in vitro, sequencing; the parent is a self-cleaving ribozyme
Can you tell me self-cleavage for the items I'm about to list?
One number for each entry.

Solved entries:
U15A U46A; 0.71
U47A U143C; 1.39
A6G A129U; 0.6

Now look at this entry.
Which measured self-cleavage value corresponds to A59U G114A ?
0.54
